Binding Signal (fold over 6E7 parental antibody) by entry:
# system-tested: T1, human TREM2 (human) (UniProt Q9NZC2)
# T1 sequence (looked up): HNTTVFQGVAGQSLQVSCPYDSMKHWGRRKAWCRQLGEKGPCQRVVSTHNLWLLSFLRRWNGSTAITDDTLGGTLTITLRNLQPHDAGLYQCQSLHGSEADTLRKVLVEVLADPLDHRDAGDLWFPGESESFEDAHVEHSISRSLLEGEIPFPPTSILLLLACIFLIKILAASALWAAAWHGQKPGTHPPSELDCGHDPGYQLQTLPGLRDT
# protocol: 1st screen, 110 nM Ab
// units = fold; emit number, no label

• 6E7 variant V71 (antibody, V domains shown) VH: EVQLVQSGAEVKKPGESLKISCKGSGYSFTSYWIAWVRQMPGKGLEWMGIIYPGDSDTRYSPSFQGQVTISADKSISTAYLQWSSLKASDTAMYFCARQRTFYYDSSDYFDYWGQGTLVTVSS VL: DIQMTQSPSSVSASVGDRVTITCRASQGISSWLAWYQQKPGKAPKLLIYAASSLQNGVPSRFSGSGSGTDFTLTISSLQPEDFATYFCQQADSEPRTFGQGTKLEIK = 0.37
• 6E7 variant V57 (antibody, V domains shown) VH: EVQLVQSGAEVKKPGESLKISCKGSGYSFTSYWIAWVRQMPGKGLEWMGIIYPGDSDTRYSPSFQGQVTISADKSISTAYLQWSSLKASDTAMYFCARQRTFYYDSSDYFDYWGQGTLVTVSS VL: DIQMTQSPSSVSASVGDRVTITCAASQGISSWLAWYQQKPGKAPKLLIYAASSLQNGVPSRFSGSGSGTDFTLTISSLQPEDFATYFCQQADSFPRTFGQGTKLEIK = 0.84

Then this binder:
Lab note: measured Binding Signal (fold over 6E7 parental antibody) of 6E7 variant V81 (antibody, V domains shown) VH: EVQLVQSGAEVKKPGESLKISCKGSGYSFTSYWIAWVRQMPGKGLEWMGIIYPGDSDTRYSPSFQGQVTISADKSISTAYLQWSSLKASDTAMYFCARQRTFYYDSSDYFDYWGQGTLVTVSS VL: DIQMTQSPSSVSASVGDRVTITCRASQGISSLLAWYQQKPGKAPKLLIYAASSLQNGVPSRFSGSGSGTDFTLTISSLQPEDFATYFCQQADSFPRTFGQGTKLEIK was 0.17
